test system: Bem1-1, P29366
Sequence (P29366 55-141): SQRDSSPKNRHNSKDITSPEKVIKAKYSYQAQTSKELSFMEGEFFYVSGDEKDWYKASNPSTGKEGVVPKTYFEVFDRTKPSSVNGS
protocol text: SPOT array
study conditions: median of control spots 4282
Recorded SPOT intensity, one value per entry.
Please state the value as a number alone, without comment.

WRPRIVPILPYITRL : 0

Exercise: Give the measured SPOT intensity of MARRRLPDRPPNGIG .
Key: 0

Exercise: Also need GRLRPKRIAPWHLIQ , thanks.
Key: 0

Exercise: Consider next the binder TKIRRRPQQPLTDFT in the same way.
Key: 0
